tested on: EKVX NSCLC; assay: NCI-60 one-dose screen, 48 h (100 = growth as untreated, 0 = no growth, -100 = all killed); conditions: 10 µM
The panel holds about 83,000 compounds, 20% with a hit somewhere; the sample as a whole holds those more often.
readout kind: growth (%)
Hi! Could you send only the number? It should be in %, unit omitted.

input: Lab request: please report growth under test system EKVX NSCLC for C/C(=N\Nc1cccc(Cl)n1)c1ccccn1
output: 5.56

input: Lab request: please report growth under test system EKVX NSCLC for O=C1CSC(c2ccccc2Cl)N1c1nnc(-c2ccncc2)o1 (stereo not drawn)
output: 93.2

input: Lab request: please report growth under test system EKVX NSCLC for CCOC(=O)C1C(=O)C(=O)N(C(C)C)C1C(=O)OCC (stereo not drawn)
output: 106

input: Lab request: please report growth under test system EKVX NSCLC for Cc1cc(CSc2ccc(Cl)cc2)ccc1N
output: 85.8

input: Lab request: please report growth under test system EKVX NSCLC for O=C(O)c1occ(Cl)c1Cl
output: 100

input: Lab request: please report growth under test system EKVX NSCLC for C/C(=N\Nc1ccc(Cl)cn1)c1ccccn1
output: 8.35

input: Lab request: please report growth under test system EKVX NSCLC for O=C(/C=C\c1ccccc1Cl)c1ccccc1
output: 96.4

input: Lab request: please report growth under test system EKVX NSCLC for c1ccc(C(=NNc2nc3ccccc3o2)c2ccccn2)nc1
output: 8

input: Lab request: please report growth under test system EKVX NSCLC for O=C1OC(c2ccc(-c3ccccc3)cc2)=C/C1=C/c1c2ccccc2cc2ccccc12
output: 65.5

input: Lab request: please report growth under test system EKVX NSCLC for CC1=NN(c2cccc(Cl)c2)C(=O)/C1=C\c1cn(-c2nc(N3CCOCC3)nc(N3CCOCC3)n2)c2ccccc12
output: 105

input: Lab request: please report growth under test system EKVX NSCLC for CSC1=Nc2c(c(C)c(-c3ccccc3)n2CCCCl)C2=NC(=O)CN12
output: 54.2

input: Lab request: please report growth under test system EKVX NSCLC for COc1cc2ncnc(-n3ncc4cc(NC(=O)Nc5ccc(Cl)c(C)c5)ccc43)c2cc1OC
output: 97.7

input: Lab request: please report growth under test system EKVX NSCLC for CC(C)(C)C(=O)OCOP(=O)(OCOC(=O)C(C)(C)C)C1CC(O)N(O)C1=O (stereo not drawn)
output: 66

input: Lab request: please report growth under test system EKVX NSCLC for C[C@@H](c1ccc2c(c1)[nH]c1ccc(Cl)cc12)c1nc2ccc(Cl)cc2[nH]1
output: 75.5

input: Lab request: please report growth under test system EKVX NSCLC for NCCCOc1cc(Cl)ccc1NC(=O)c1cc2ccccc2cc1OCCCN
output: -16.1

input: Lab request: please report growth under test system EKVX NSCLC for COc1ccc(/C=C(/C(=O)N2CCN(c3ccc(C)cc3)CC2)c2cc(OC)c(OC)c(OC)c2)cc1N
output: 45.5

input: Lab request: please report growth under test system EKVX NSCLC for CC(C)(C)c1ccc(OCCOC(=O)CBr)cc1
output: 126

input: Lab request: please report growth under test system EKVX NSCLC for CC(=O)Nc1nc(C)c(C(=O)N/N=C/N2CCOCC2)s1
output: 122

input: Lab request: please report growth under test system EKVX NSCLC for CCCCCCCCCCCCc1ccc([N+](CC)(CC)CC)cc1
output: 41

input: Lab request: please report growth under test system EKVX NSCLC for NC(=O)c1c(Nc2ccccc2)nn2cc(-c3nc4ccccc4s3)c(N)nc12
output: 89.5
